test_protocol: PET hydrolysis, aromatic products released after 48 h (umol product/mg enzyme); higher = more PET depolymerization activity
test_conditions: substrate: cryPow; 40 °C; pH 4.5
The entries below are paired with their reported PET hydrolysis.
property_label: PET hydrolysis

{"sequence_code": "AAPAGPAALPARPLAAAPADSPYERGPAPTEASITAERGPFAIEKIDVPAGSGTGFNRGTIYAPTDTSQGTFGAIAVSPGFMSPQSVIDWYGPRLASQGFVVMTLETKSLLDAPAARGDQLLAALDYMTGKSKAKDRIDASRLAVMGHSMGGGGTLEAANKRASLQAAVPLAPWDTNYDWKNVQAPTMIMGADNDTIAPADSMAERYYGTLTAVPEKAYLELRNAGHTTFNAPNTTIAKYAIAWMKRFVDDDARYEQFLCPEPSPSTTIAQYEGTCPTG [TEP067]", "value_operator": "=", "measured_value": 5}
{"sequence_code": "DEIGQAPTSSNITGNGSFSVSTYNISSLVTGFGGGVAYYPSTAGRYPVVAVSPGFTARWSSISWIGPRLASWGFVVVGIETNSVYDQPASRGSQLLAALNWAVNSAPSAITSRADGSRRGVAGHSMGGGGTLEALAADTTGNVKAGVPLAPWNSDKTWNNVNEPVQIIGGESDTVAGVSSHSIPFYNSLGGSKSYVELNGASHFFPQTTNATTSRALVSWFKRWLNQDARFTPFTCGYGGTAVSDFRTNAC [ESM177]", "value_operator": "<", "measured_value": 3}
